- Measurement target: HLA-B*0702 (Homo sapiens, UniProt P01889)
- Type: binding
- Experimental context: Table XXIV, B7 supermotif peptides
Value kind: pIC50
Numbers only, as −log10 of the molar value.

compound="CC[C@H](C)[C@H](NC(=O)[C@@H](NC(=O)[C@H](CO)NC(=O)[C@H](CC(=O)O)NC(=O)[C@H](CC(C)C)NC(=O)[C@@H]1CCCN1C(=O)[C@H](CO)NC(=O)[C@H](C)NC(=O)[C@@H]1CCCN1C(=O)[C@@H](N)Cc1ccccc1)[C@@H](C)O)C(=O)O [Her2/neu.995.F1I10]" measured_number=7.70

Next, consider the following compound.
Query string: Data request, read-out pIC50, for CC[C@H](C)[C@H](NC(=O)CNC(=O)[C@H](C)NC(=O)[C@@H]1CCCN1C(=O)[C@H](CCCNC(=N)N)NC(=O)[C@H](C)NC(=O)[C@H](C)NC(=O)[C@@H]1CCCN1C(=O)[C@@H](N)Cc1ccccc1)C(=O)O [Her2/neu.1157.F1I9]
Result string: 8.03
